Provide the reported MFI at 20 nM conc. of each item.
target: human PD-1 stably expressed on Jurkat/IL-2 reporter cells (Jurkat/PD-1 cells) (human, UniProt Q15116 25-288); assay: flow cytometry, Jurkat/PD-1 cells
Sequence (Q15116 25-288): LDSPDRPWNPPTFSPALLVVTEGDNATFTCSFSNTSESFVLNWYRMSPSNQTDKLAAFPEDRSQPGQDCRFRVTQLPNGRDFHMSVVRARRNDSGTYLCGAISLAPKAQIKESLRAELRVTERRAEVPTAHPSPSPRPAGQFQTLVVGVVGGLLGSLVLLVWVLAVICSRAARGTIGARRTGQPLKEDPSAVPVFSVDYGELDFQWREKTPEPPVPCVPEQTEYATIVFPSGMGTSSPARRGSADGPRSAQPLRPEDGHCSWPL
Give a bare numeral; the unit MFI is implied.

stdin: Which MFI at 20 nM conc. is reported for this binder? variant PD-L1 ECD-Fc N45D, V50A, I119T, K144E (Fc fusion, not shown: a dimerising Fc or GST) FTVTVPKDLYVVEYGSNMTIECKFPVEKQLDLAALIVYWEMEDKDIIQFAHGEEDLKVQHSSYRQRARLLKDQLSLGNAALQITDVKLQDAGVYRCMISYGGADYKRITVKVNAPYNKTNQRILVVDPVTSEHELTCQAEGYPEAEVIWTSSDHQVLSGKTTTTNSKREEKLFNVTSTLRINTTTNEIFYCTFRRLDPEENHTAELVIPELPLAHPPNER
stdout: 34200

stdin: Bench note: what MFI at 20 nM conc. did variant PD-L1 ECD-Fc N45D, F173I, S177C (Fc fusion, not shown: a dimerising Fc or GST) FTVTVPKDLYVVEYGSNMTIECKFPVEKQLDLAALIVYWEMEDKDIIQFVHGEEDLKVQHSSYRQRARLLKDQLSLGNAALQITDVKLQDAGVYRCMISYGGADYKRITVKVNAPYNKINQRILVVDPVTSEHELTCQAEGYPKAEVIWTSSDHQVLSGKTTTTNSKREEKLINVTCTLRINTTTNEIFYCTFRRLDPEENHTAELVIPELPLAHPPNER show?
stdout: 2200

// provenance: patent US20260062456A1
